Consider the following compounds and their measured GFP fluorescence, lower = active (kMESF (background-subtracted)) readings.
experiment: TOR pathway RPL19A-GFP modulators, concentration series – cell-based, S. cerevisiae, flow cytometry, MLPCN hits, dose response (AID 2740);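 further: background is signal of the same compound in parental non-GFP s288c yeast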; settings: S. cerevisiae RPL19A-GFP strain, flow cytometry fluorescence, 3 h; at 33 µM (top of the series)
assay_readout: GFP fluorescence, lower = active (kMESF (background-subtracted))

| compound | numeric_result |
| --- | --- |
| COc1cccc(/C=N/Nc2ccc([N+](=O)[O-])cn2)c1O | 42.1 |
| CC(=O)Oc1oc(-c2ccccc2)nc1C=Nc1ccc(N(C)C)cc1 | 41.6 |
| CCC(C)/C(C)=N/NC(=O)c1ccc(COc2ccc(Cl)c(C)c2)cc1 (stereo unspecified) | 44.9 |
| O=C(c1ccc(Cl)c([N+](=O)[O-])c1)N1CCN(c2ccccc2)CC1 | 46.4 |
| COc1ccccc1C(=O)NNC(=S)NC(=O)c1cccs1 | 43.5 |
| Cc1cc(C)c(C)c(S(=O)(=O)ON2C(=O)c3ccccc3C2=O)c1C | 49.1 |
| Cc1cc(C)c2c(c1)/C(=C/C(=O)c1ccc(Br)s1)C(=O)N2 | 46.6 |
| Cc1ccc(/C=C2\C(=O)NC(=S)N(c3ccc(F)cc3)C2=O)s1 | 38 |
| COc1ccc(/C=C/C(=O)c2cc(Br)ccc(=O)c2O)cc1 | -35.7 |
| O=C1N(c2ccccc2C(F)(F)F)O[C@@]1(c1ccccc1)C1CCCCC1 | 37.6 |
| COc1ccccc1N=Nc1ccc(O)c2ncccc12 | 32.6 |

====

experiment: TOR pathway RPL19A-GFP modulators, concentration series – cell-based, S. cerevisiae, flow cytometry, MLPCN hits, dose response (AID 2740);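 further: background is signal of the same compound in parental non-GFP s288c yeast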; conditions: S. cerevisiae RPL19A-GFP strain, flow cytometry fluorescence, 3 h; at 33 µM (top of the series)
Output MET for records whose GFP fluorescence, lower = active (kMESF (background-subtracted)) is lower than 30, NOT MET for records at or above 30.

| molecule | group_label |
| --- | --- |
| Cc1ccc(/C=C2/SC(=S)N(C3CCCCC3)C2=O)o1 | NOT MET |
| CC(C)Cn1c(=O)c(C(=O)Nc2ccncc2)c(O)c2ccccc21 | MET |
| O=C1C(=O)c2ccccc2-c2ccccc21 | MET |
| CC(=O)N(C1=C(Cl)C(=O)c2ccccc2C1=O)C1CCCCC1 | MET |
| CCc1cccc2sc(N3CCN(C(=O)c4ccc([N+](=O)[O-])o4)CC3)nc12 | MET |
| O=[N+]([O-])c1ccc(N=Nc2c(Cl)cc(O)cc2Cl)cc1 | NOT MET |
| O=C(O)/C=C/C(=O)c1ccc2c(c1)CCc1ccccc1-2 | MET |
| Cc1ccc(C(CC(=O)O)NC(=O)c2ccc(S(=O)(=O)N3CC(C)OC(C)C3)cc2)cc1 (centres undefined) | NOT MET |
| CCN(CC)C(=S)SSC(=S)N(CC)CC | NOT MET |
| COc1ccc(N=Nc2ccc(O)c3ncccc23)cc1 | NOT MET |
| CC(C)(C)C1C/C(=C/c2ccccn2)C(=O)/C(=C/c2ccccn2)C1 (centres undefined) | NOT MET |
| O=C(/C=C/c1ccccc1)c1cc(Br)ccc(=O)c1O | MET |
| Cc1ccc(N2C(=O)CC(Sc3ncn[nH]3)C2=O)cc1C (centres undefined) | NOT MET |
| CC(C)(C)c1cc(C(c2cccnc2)N2CCN(CCO)CC2)cc(C(C)(C)C)c1O (centres undefined) | MET |
| O=C1C=C(c2ccc(Cl)cc2)C(=O)N1Nc1ccccc1 | MET |
| Cc1ccccc1OCC(=O)NNC(=S)NC(=O)c1ccco1 | NOT MET |
| O=C(NC(=S)NNC(=O)c1cnccn1)c1ccc(Cl)cc1 | NOT MET |
| C[C@@]12C(=O)OC(=O)[C@]1(C)C1CCC2O1 | MET |
| Oc1ccc(Br)cc1/C=N/Nc1ccccn1 | NOT MET |
| CCN(CC)c1ccc2cc(-c3nc(-c4ccc(OC)cc4)cs3)c(=O)oc2c1 | NOT MET |
| CCCOc1ccc(C(=O)NNC(=S)NC(=O)c2ccco2)cc1 | NOT MET |
| CS(=O)(=O)N1N=C(c2ccccc2)CC1c1ccc2c(c1)OCO2 (centres undefined) | NOT MET |
